# measurement.target: UniProt:Q9UNQ0
# Sequence (Q9UNQ0 whole entry): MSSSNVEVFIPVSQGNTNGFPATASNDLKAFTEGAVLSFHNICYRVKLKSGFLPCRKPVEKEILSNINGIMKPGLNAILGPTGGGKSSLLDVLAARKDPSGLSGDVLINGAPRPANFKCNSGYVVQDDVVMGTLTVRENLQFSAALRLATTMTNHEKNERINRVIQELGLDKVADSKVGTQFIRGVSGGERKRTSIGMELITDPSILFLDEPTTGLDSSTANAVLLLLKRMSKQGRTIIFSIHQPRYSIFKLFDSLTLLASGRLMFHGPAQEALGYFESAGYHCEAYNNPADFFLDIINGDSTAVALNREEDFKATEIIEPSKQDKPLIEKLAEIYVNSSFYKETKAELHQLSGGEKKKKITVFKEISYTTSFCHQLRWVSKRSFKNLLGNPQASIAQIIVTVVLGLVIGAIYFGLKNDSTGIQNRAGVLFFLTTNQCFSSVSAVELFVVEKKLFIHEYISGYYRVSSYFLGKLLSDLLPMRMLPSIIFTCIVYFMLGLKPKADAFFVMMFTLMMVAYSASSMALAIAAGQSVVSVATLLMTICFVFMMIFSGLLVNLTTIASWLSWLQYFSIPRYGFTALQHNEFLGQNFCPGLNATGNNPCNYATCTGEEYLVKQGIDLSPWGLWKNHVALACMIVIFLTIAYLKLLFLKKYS
# protocol.description: Inhibition of recombinant human GFP-fused ABCG2 expressed in MDCK2 cells assessed as reduction in Hoechst 33342 efflux preincubated for 30 mins followed by Hoechst 33342 addition measured immediately at 60 sec time interval for 120 mins by fluorescence assay
property.name: pIC50
Bear in mind: pIC50 is minus log10 of a mol/L concentration; give just that figure.

Illustrative cases are given below, each with its answer.
smiles.str	pIC50
O=[N+]([O-])c1cccc(Nc2nc(-c3ccccn3)nc3ccccc23)c1	6.42
COc1ccc(Nc2nc(-c3cccnc3)nc3ccccc23)cc1OC	6.12
COc1ccc(Nc2nc(-c3ccncc3)nc3ccccc23)cc1	6.13
COc1cccc(Nc2nc(-c3ccncc3)nc3ccccc23)c1	6.25

`COc1cccc(Nc2nc(-c3cccnc3)nc3ccccc23)c1` yielded pIC50 of 5.99

Measured pIC50 of `N#Cc1ccc(Nc2nc(-c3ccccc3)nc3ccccc23)cc1` : 7.15

----------
# protocol.description: Cytotoxicity against ABCG2 over-expressing MDCK2 cells assessed as cell growth inhibition after 72 hrs by MTT assay
# Assay type: ADME, cell-based, Canis lupus familiaris, MDCK-II
# condition.details: dog
property.name: GI50 at 72 h (µM)
Numbers only here, please. The scale is µM.

Before answering, review these 5 worked examples.
smiles.str	units	GI50 at 72 h
c1ccc(Nc2nc(-c3ccccc3)nc3ccccc23)cc1	µM	26.6
Cc1cc(Nc2ccccc2)nc(-c2ccccc2)n1	µM	107
N#Cc1cccc(Nc2nc(-c3cccnc3)nc3ccccc23)c1	µM	75.3
Oc1ccc(Nc2nc(-c3ccncc3)nc3ccccc23)cc1	µM	55
FC(F)(F)c1ccc(Nc2nc(-c3ccncc3)nc3ccccc23)cc1	µM	117

Continue with the molecule presented below.
Entry `Oc1cccc(Nc2nc(-c3ccncc3)nc3ccccc23)c1` , GI50 at 72 h reported as 9.22

----------
# measurement.target: Broad substrate specificity ATP-binding cassette transporter ABCG2 (Homo sapiens, UniProt Q9UNQ0)
# protocol.description: Activation of ABCG2 (unknown origin) ATPase activity expressed in baculovirus infected high five cell membranes by ascorbic acid/ammonia molybdate reaction-based colorimetric analysis
# condition.details: read-out: EC50
Heads up, the class ranges for EC50 are class 0 = under 20 nM, class 1 = from 20 nM up to 400 nM, class 2 = 400 nM and over

Previously resolved entries follow.
smiles.str	qualitative.label
Cc1cc(Nc2ccc(C#N)cc2)nc(-c2ccccc2)n1	class 2
O=[N+]([O-])c1ccc(Nc2nc(-c3cccnc3)nc3ccccc23)cc1	class 0
N#Cc1ccc(Nc2nc(-c3cccnc3)nc3ccccc23)cc1	class 0
N#Cc1cccc(Nc2nc(-c3ccncc3)nc3ccccc23)c1	class 0
N#Cc1cccc(Nc2nc(-c3ccccn3)nc3ccccc23)c1	class 2

The entry to classify is `CC(C)(C)OC(=O)c1cccc(Nc2nc(-c3ccncc3)nc3ccccc23)c1` ; which class holds it?
class 2

Classify this compound: `COc1ccc(Nc2cc(C)nc(-c3ccncc3)n2)cc1`
class 1

----------
Ki data for Broad substrate specificity ATP-binding cassette transporter ABCG2 (Homo sapiens) follow.
// note: answer is a bare numeric in µM

smiles.str	measurement.target	Ki (µM)
FC(F)(F)c1cccc(Nc2nc(-c3ccncc3)nc3ccccc23)c1	Broad substrate specificity ATP-binding cassette transporter ABCG2 (Homo sapiens)	28

Please find the next compound below.
The value of Ki recorded for `FC(F)(F)c1ccc(Nc2nc(-c3ccncc3)nc3ccccc23)cc1` when tested on Broad substrate specificity ATP-binding cassette transporter ABCG2 (Homo sapiens) reads 27

----------
Quick list: log10 of GI50 at 72 h per entry.
# protocol.description: Cytotoxicity against MDCK2 cells assessed as cell growth inhibition after 72 hrs by MTT assay
# Assay type: cell-based, Canis lupus familiaris, MDCK-II
# condition.details: dog
Note: values are log10 of GI50 at 72 h expressed in µM.

smiles.str	log10 of GI50 at 72 h
FC(F)(F)c1ccc(Nc2nc(-c3ccncc3)nc3ccccc23)cc1	2.22
c1ccc(Nc2nc(-c3ccccc3)nc3ccccc23)cc1	1.41
O=[N+]([O-])c1ccc(Nc2nc(-c3cccnc3)nc3ccccc23)cc1	1.87
Fc1cccc(Nc2nc(-c3cccnc3)nc3ccccc23)c1	2.00
COc1ccc(Nc2nc(-c3ccncc3)nc3ccccc23)cc1C(F)(F)F	0.39
N#Cc1ccc(Nc2nc(-c3cccnc3)nc3ccccc23)cc1	2.02
O=[N+]([O-])c1cccc(Nc2nc(-c3cccnc3)nc3ccccc23)c1	1.81

Lab note: `N#Cc1cccc(Nc2nc(-c3cccnc3)nc3ccccc23)c1` gave log10 of GI50 at 72 h of 1.96

----------
Overview of recorded Emax for various molecules
# measurement.target: ABCG2 (Homo sapiens)
# protocol.description: Activation of ABCG2 (unknown origin) ATPase activity expressed in baculovirus infected high five cell membranes assessed as protein Vmax by ascorbic acid/ammonia molybdate reaction-based colorimetric analysis relative to basal control
# condition.details: read-out: Vmax

In the examples that follow, each entry is paired with its recorded Emax.
smiles.str	measured.result
Cc1cc(Nc2ccc(C#N)cc2)nc(-c2ccccc2)n1	140%
COc1ccc(Nc2cc(C)nc(-c3ccncc3)n2)cc1	146%
O=[N+]([O-])c1cccc(Nc2nc(-c3ccncc3)nc3ccccc23)c1	185%

Next:
// molecule `Cc1cc(Nc2ccc(O)c([N+](=O)[O-])c2)nc(-c2ccccc2)n1` , assay ABCG2 (Homo sapiens), Emax value: 154%

----------
# measurement.target: ATP-dependent translocase ABCB1 (Homo sapiens)
# Sequence (P08183 whole entry): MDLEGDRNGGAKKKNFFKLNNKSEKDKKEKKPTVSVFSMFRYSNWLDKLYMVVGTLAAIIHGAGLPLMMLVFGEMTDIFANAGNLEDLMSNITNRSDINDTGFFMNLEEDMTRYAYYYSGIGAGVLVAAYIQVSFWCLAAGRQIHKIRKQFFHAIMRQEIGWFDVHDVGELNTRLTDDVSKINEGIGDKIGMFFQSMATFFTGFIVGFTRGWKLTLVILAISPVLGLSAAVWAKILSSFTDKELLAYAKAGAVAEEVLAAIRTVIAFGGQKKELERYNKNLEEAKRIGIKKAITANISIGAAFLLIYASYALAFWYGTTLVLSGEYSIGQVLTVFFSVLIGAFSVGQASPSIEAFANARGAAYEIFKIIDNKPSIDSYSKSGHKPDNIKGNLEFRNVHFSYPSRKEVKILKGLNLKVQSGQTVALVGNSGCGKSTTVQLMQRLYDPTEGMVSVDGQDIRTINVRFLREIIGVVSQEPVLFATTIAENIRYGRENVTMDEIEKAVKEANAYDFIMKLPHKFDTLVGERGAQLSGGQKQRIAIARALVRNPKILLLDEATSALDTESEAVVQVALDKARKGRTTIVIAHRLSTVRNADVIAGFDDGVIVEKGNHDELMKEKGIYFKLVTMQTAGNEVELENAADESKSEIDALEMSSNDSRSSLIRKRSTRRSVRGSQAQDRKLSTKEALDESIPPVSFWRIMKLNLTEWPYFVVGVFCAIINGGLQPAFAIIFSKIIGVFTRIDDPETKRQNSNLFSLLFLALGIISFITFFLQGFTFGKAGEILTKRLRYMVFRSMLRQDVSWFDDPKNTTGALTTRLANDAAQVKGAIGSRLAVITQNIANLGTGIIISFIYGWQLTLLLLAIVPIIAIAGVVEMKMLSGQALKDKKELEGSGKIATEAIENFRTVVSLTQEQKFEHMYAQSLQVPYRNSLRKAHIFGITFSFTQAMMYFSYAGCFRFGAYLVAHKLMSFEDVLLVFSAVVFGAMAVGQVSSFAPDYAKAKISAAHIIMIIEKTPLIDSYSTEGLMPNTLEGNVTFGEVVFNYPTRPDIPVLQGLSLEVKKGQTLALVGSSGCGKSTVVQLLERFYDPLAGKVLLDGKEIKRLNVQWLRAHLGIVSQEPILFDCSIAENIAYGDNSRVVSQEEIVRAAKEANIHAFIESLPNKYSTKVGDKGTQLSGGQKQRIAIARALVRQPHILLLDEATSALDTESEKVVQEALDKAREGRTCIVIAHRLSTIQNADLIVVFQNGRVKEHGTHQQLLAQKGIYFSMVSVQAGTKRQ
# protocol.description: Inhibition of ABCB1 in human A2780adr cells assessed as reduction in calcein AM levels preincubated for 30 mins followed by calcein AM addition measured immediately at 60 sec time interval for 60 mins by fluorescence assay
Listed below: pIC50 values for each entry.
When answering, recall that pIC50 equals minus log10 of the concentration in mol/L, and write that number alone.

Assay ATP-dependent translocase ABCB1 (Homo sapiens), sample `CC(C)(C)OC(=O)c1cccc(Nc2nc(-c3ccncc3)nc3ccccc23)c1` , pIC50 read: 6.48

# value of pIC50, ATP-dependent translocase ABCB1 (Homo sapiens), item `COc1ccc(Nc2nc(-c3cccnc3)nc3ccccc23)cc1OC` = 5.51

The compound `COC(=O)c1cccc(Nc2nc(-c3ccncc3)nc3ccccc23)c1` on ATP-dependent translocase ABCB1 (Homo sapiens): pIC50 was 5.20

Kindly note: ATP-dependent translocase ABCB1 (Homo sapiens), `COc1ccc(Nc2nc(-c3ccncc3)nc3ccccc23)cc1C(F)(F)F` , pIC50 value reported: 5.56

Test item `COc1ccc(Nc2nc(-c3ccncc3)nc3ccccc23)cc1OC` ; ATP-dependent translocase ABCB1 (Homo sapiens); reported pIC50 was 5.68

The value of pIC50 recorded for `O=C(O)c1ccc(Nc2nc(-c3ccncc3)nc3ccccc23)cc1` when tested on ATP-dependent translocase ABCB1 (Homo sapiens) reads 5.44

Field pIC50 (system: ATP-dependent translocase ABCB1 (Homo sapiens)) for entry `COc1cccc(Nc2nc(-c3cccnc3)nc3ccccc23)c1` = 5.32

Tested system ATP-dependent translocase ABCB1 (Homo sapiens); pIC50 recorded for `COc1ccc(Nc2nc(-c3ccccn3)nc3ccccc23)cc1OC` was 5.20

Test item `COc1cccc(Nc2nc(-c3ccccn3)nc3ccccc23)c1` ; ATP-dependent translocase ABCB1 (Homo sapiens); reported pIC50 was 4.90

The compound `COc1cccc(Nc2nc(-c3ccncc3)nc3ccccc23)c1` on ATP-dependent translocase ABCB1 (Homo sapiens): pIC50 was 5.27

----------
# measurement.target: ABCG2 (Homo sapiens)
# Sequence (Q9UNQ0 whole entry): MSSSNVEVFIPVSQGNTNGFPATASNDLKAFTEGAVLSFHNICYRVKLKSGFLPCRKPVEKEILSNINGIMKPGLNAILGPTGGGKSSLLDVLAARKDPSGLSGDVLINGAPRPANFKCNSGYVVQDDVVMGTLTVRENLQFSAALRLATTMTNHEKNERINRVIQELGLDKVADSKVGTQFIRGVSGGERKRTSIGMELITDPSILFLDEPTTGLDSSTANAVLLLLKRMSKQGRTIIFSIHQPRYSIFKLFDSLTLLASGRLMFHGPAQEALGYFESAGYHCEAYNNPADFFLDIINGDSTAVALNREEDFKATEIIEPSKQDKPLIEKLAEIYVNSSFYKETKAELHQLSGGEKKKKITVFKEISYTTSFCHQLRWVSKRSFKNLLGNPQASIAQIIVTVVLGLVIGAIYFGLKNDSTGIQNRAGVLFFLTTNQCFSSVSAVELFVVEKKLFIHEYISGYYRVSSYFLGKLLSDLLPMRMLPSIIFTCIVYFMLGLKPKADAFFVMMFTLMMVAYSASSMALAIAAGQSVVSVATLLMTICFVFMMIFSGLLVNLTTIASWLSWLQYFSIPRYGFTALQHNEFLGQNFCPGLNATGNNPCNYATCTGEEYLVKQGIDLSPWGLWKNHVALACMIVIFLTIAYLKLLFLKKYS
# protocol.description: Activation of ABCG2 (unknown origin) ATPase activity expressed in baculovirus infected high five cell membranes assessed as protein Vmax at 0.5 uM by ascorbic acid/ammonia molybdate reaction-based colorimetric analysis relative to basal control
# condition.details: read-out: Vmax
property.name: Emax at 0.5 µM (%)
Field format: number, assumed %, no unit text.

So, `FC(F)(F)c1cccc(Nc2nc(-c3ccncc3)nc3ccccc23)c1` ? Its Emax at 0.5 µM was 155

The values you see were collected from ChEMBL document CHEMBL4014315.
